Data provenance is paper PMC11899342.

System: MRSA clinical isolates
Assay: Antibiotic susceptibility profile of MRSA clinical isolates (EUCAST breakpoints)
Assay type: cell-based, Staphylococcus aureus
Conditions: MRSA strain 48
Quantity Kind: Drug sensibility profile

Examples from the recorded data:
Compound: CNC(C)C1CCC(N)C(OC2C(N)CC(N)C(OC3OCC(C)(O)C(NC)C3O)C2O)O1 (stereo not shown)
Drug sensibility profile: R
//
Compound: CN[C@H](CC(C)C)C(=O)N[C@H]1C(=O)N[C@@H](CC(N)=O)C(=O)N[C@H]2C(=O)N[C@H]3C(=O)N[C@H](C(=O)N[C@H](C(=O)O)c4cc(O)cc(O)c4-c4cc3ccc4O)[C@H](O)c3ccc(c(Cl)c3)Oc3cc2cc(c3O[C@@H]2O[C@H](CO)[C@@H](O)[C@H](O)[C@H]2O[C@H]2C[C@](C)(N)[C@H](O)[C@H](C)O2)Oc2ccc(cc2Cl)[C@H]1O
Drug sensibility profile: S
//
Compound: CC(=O)NC[C@H]1CN(c2ccc(N3CCOCC3)c(F)c2)C(=O)O1
Drug sensibility profile: S
//
Compound: CCC[C@@H]1C[C@@H](C(=O)N[C@@H]([C@H]2O[C@H](SC)[C@H](O)[C@@H](O)[C@H]2O)[C@H](C)Cl)N(C)C1
Drug sensibility profile: R
//
Compound: CCCCCCCCCC(=O)N[C@@H](Cc1c[nH]c2ccccc12)C(=O)N[C@H](CC(N)=O)C(=O)N[C@@H](CC(=O)O)C(=O)N[C@@H]1C(=O)NCC(=O)N[C@@H](CCCN)C(=O)N[C@@H](CC(=O)O)C(=O)N[C@H](C)C(=O)N[C@@H](CC(=O)O)C(=O)NCC(=O)N[C@H](CO)C(=O)N[C@@H]([C@H](C)CC(=O)O)C(=O)N[C@@H](CC(=O)c2ccccc2N)C(=O)O[C@@H]1C
Drug sensibility profile: S

Name the value of Drug sensibility profile reported for Cc1cc(NS(=O)(=O)c2ccc(N)cc2)no1 when tested on MRSA clinical isolates. S

Name the value of Drug sensibility profile reported for CO/N=C(\C(=O)N[C@@H]1C(=O)N2C(C(=O)O)=C(COC(C)=O)CS[C@H]12)c1csc(N)n1 when tested on MRSA clinical isolates. R

###

Tested on: MRSA clinical isolates
Assay: MIC by broth microdilution against multidrug-resistant MRSA clinical isolates
Format: cell-based, Staphylococcus aureus
Settings: Staphylococcus aureus, MRSA, Figure 6, MRSA strain 8; read-out: MIC against 8 MRSA strains
Catalogue of MIC readings, one per entry.
The reply should contain only the number, in µg/mL.

Examples from the recorded data:
Compound Structure String: CC(=O)NC[C@H]1CN(c2ccc(N3CCOCC3)c(F)c2)C(=O)O1
MIC (µg/mL): 2

Compound Structure String: CCOC(=O)c1[nH]c2cc(F)ccc2c1/N=N/N1CCCC1
MIC (µg/mL): 0.25

Compound Structure String: CCOC(=O)c1[nH]c2cc(F)ccc2c1/N=N/N1CCCN(C)CC1
MIC (µg/mL): 1

Compound Structure String: CCOC(=O)c1[nH]c2cc(F)ccc2c1/N=N/N1CCC(C)CC1
MIC (µg/mL): 0.25

Compound Structure String: CCOC(=O)c1[nH]c2cc(F)ccc2c1/N=N/N(C)CCc1ccccn1
MIC (µg/mL): 0.5

Determine its reported MIC: CCOC(=O)c1[nH]c2cc(F)ccc2c1/N=N/N1CCN(C)CC1 0.5
